- test.name: Metabolic stability in rat liver microsomes assessed as compound remaining after 30 mins
- Type: ADME
- conditions.used: read-out: Stability
measure.name: remaining at 0.5 h (%)

Consider the following illustrative entries.
COC(=O)N[C@H](C(=O)N1CCC[C@H]1C(=O)Nc1ccc([C@H]2CC[C@H](c3ccc(NC(=O)[C@@H]4CCCN4C(=O)[C@@H](NC(=O)OC)C(C)C)cc3)N2c2ccc(F)cc2)cc1)C(C)C ... 38
COC(=O)N[C@H](C(=O)N1CCC[C@H]1C(=O)Nc1ccc([C@H]2CC[C@H](c3ccc(NC(=O)[C@@H]4CCCN4C(=O)[C@@H](NC(=O)OC)[C@@H](C)OC)cc3)N2c2ccc(F)cc2)cc1)[C@@H](C)OC ... 46
COC(=O)N[C@H](C(=O)N1CCC[C@H]1C(=O)Nc1ccc([C@@H]2CC[C@@H](c3ccc(NC(=O)[C@@H]4CCCN4C(=O)[C@@H](NC(=O)OC)C(C)(C)C)cc3)N2c2ccc(F)cc2)cc1)C(C)(C)C ... 56

[I] COC(=O)N[C@H](C(=O)N1CCC[C@H]1C(=O)Nc1ccc([C@H]2CC[C@H](c3ccc(NC(=O)[C@@H]4CCCN4C(=O)[C@@H](NC(=O)OC)[C@H]4CCOC4)cc3)N2c2ccc(F)cc2)cc1)[C@H]1CCOC1
[II] COC(=O)N[C@H](C(=O)N1CCC[C@H]1C(=O)Nc1ccc([C@@H]2CC[C@@H](c3ccc(NC(=O)[C@@H]4CCCN4C(=O)[C@@H](NC(=O)OC)C(C)(C)C)cc3)N2c2ccc(C(C)(C)C)cc2)cc1)C(C)(C)C
Endpoint returns whichever of I and II has the numerically higher remaining at 0.5 h. Answer format: the label of the selected item. II
(II: 87%, I: 46%)
